- assay_method_text: Inhibition of Saccharomyces cerevisiae alpha-glucosidase using PNPG as substrate incubated for 10 mins by spectrophotometric method
pIC50: −log10 of the molar value.
We use 5 as the dividing line for pIC50: on or above the line is Fulfilled, below is Not fulfilled.

Consider the following illustrative entries.
| molecular_string | group_label |
| --- | --- |
| Cc1ccc(S(=O)(=O)Nc2ccc(C(=O)/C=C/c3ccc(O)c(O)c3)cc2)cc1 | Not fulfilled |
| OCc1ccc2n1C[C@@H](c1ccc(O)cc1)OC2 | Fulfilled |
| OC[C@H]1NC[C@@H](O)[C@@H]1O | Not fulfilled |
| Cc1ccc(S(=O)(=O)Nc2ccc(C(=O)/C=C/c3ccc(O)cc3)cc2)cc1 | Not fulfilled |
| CCCCCCCCn1cnc2cc(N)c(-c3ccccc3O)cc21 | Fulfilled |
| Cc1cc2c(c(=O)[nH]1)C(=O)O/C2=C\c1ccc(CO)n1-c1ccc(Cl)cc1 | Not fulfilled |
| Cc1ccc(S(=O)(=O)Nc2cccc(C(=O)/C=C/c3ccc(O)c(O)c3)c2)cc1 | Not fulfilled |
| COc1cc(O)c2c(c1)C(=O)c1cc(C)cc(O)c1C2=O | Not fulfilled |

Is pIC50 for Cc1cc(O)c2c(c1)C(=O)c1cc(O)cc(O)c1C2=O at or above 5?
Not fulfilled

Follow-up item: CC(C)c1ccc(/C=C2\C(=O)Nc3cc(Cl)ccc32)cc1
Not fulfilled
